# assay details: NCI Yeast Anticancer Drug Screen. Data for the rad50 strain (AID 155);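 also: 0% = growth of vehicle-only cultures of the same strain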
# experimental parameters: S. cerevisiae rad50 strain growth inhibition; at 1.2 µM; stronger effect = higher value
This is part of a sample that, as a whole, favours compounds with a hit. Of some 79,000 tested, about 15% had one in any assay.
quantity: growth inhibition (%)
# number only, unit % dropped from output

Consider the worked cases shown below.
1) COC1=CCC23C(=O)C=CC(=O)C2(C1)C(=O)c1ccccc1C3=O (configuration not stated): -27
2) BrC1C2CCC3OC3C12 (configuration not stated): 3
3) S=C(NCc1ccccn1)N/N=C/c1ccccn1: 97
4) NNc1ccccc1-c1nc2ccccc2[nH]1: -1
5) CC(C)CCC[C@@H](C)[C@H]1CC[C@H]2[C@@H]3CC[C@H]4C[C@H](N)CC[C@]4(C)[C@H]3CC[C@]12C: 1

Problem: Suppose we examine the compound CC1C(c2ccccc2)SC(=N)N1C (configuration not stated) ; what growth inhibition value has been reported?
Solution: -2

Problem: Suppose we examine the compound OC(CC(O)(C(F)(F)F)C(F)(F)F)c1ccc(C(O)CC(O)(C(F)(F)F)C(F)(F)F)cc1 (configuration not stated) ; what growth inhibition value has been reported?
Solution: 35

Problem: Suppose we examine the compound CCOC(=O)C(Cc1c2ccccc2cc2ccccc12)(NC(C)=O)C(=O)OCC ; what growth inhibition value has been reported?
Solution: -6

Problem: Suppose we examine the compound C1=CCN([B-](c2ccccc2)[C+]2CCCCC2)C=C1 ; what growth inhibition value has been reported?
Solution: -3
